- Test system: 454973-116-R2-J3-PDC spheroids, percent test/control viability
- EXPERIMENT_DESCRIPTION: Anticancer human tumor 454973-116-R2-J3-PDC patient-derived pancreatic carcinoma cell line growth inhibition [CLK]; active means viability on the fitted dose curve at most 10% of control; inactive means the rest
- CONDITION_INFO: second compound 1 µM; first compound 0.03 µM; spheroids with HUVEC and MSC
Tick one outcome: active, inactive

stdin: So what was the verdict on NC(=O)C(=Cn1cnc(-c2cc(C(F)(F)F)cc(C(F)(F)F)c2)n1)c1cncnc1 + CNC(=O)c1ccc(Nc2nc(OC3CCCC3)c3c(-c4ccc5nc(C)oc5c4)c[nH]c3n2)c(OC)c1 in this test?
stdout: inactive

stdin: So what was the verdict on C=CC(=O)Nc1cc(Nc2nccc(-c3cn(C)c4ccccc34)n2)c(OC)cc1N(C)CCN(C)C + CN1CCN(c2cc(C(=O)Nc3cc4cc(-c5cnn(C)c5)ccc4cn3)ccn2)CC1 in this test?
stdout: active

stdin: So what was the verdict on C=CC(=O)Nc1cc(Nc2nccc(-c3cn(C)c4ccccc34)n2)c(OC)cc1N(C)CCN(C)C + CNC(=O)c1ccc(Nc2nc(OC3CCCC3)c3c(-c4ccc5nc(C)oc5c4)c[nH]c3n2)c(OC)c1 in this test?
stdout: inactive

---

- System: 454973-116-R2-J3-PDC spheroids, percent test/control viability
- EXPERIMENT_DESCRIPTION: Anticancer human tumor 454973-116-R2-J3-PDC cell line growth inhibition [CLK]; active means viability on the fitted dose curve at most 10% of control; inactive means the rest;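 further: spheroids exposed to compounds for 7 days before readout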
- CONDITION_INFO: second compound 0.316 µM; first compound 0.003 µM; spheroids with HUVEC and MSC
Tick one outcome: active, inactive

stdin: So what was the verdict on CC(C)CC(NC(=O)C(Cc1ccccc1)NC(=O)c1cnccn1)B(O)O (centres undefined) + CNC(=O)c1ccc(Nc2nc(OC3CCCC3)c3c(-c4ccc5nc(C)oc5c4)c[nH]c3n2)c(OC)c1 in this test?
stdout: inactive

stdin: So what was the verdict on C=CC(=O)Nc1cc(Nc2nccc(-c3cn(C)c4ccccc34)n2)c(OC)cc1N(C)CCN(C)C + CNC(=O)c1ccc(Nc2nc(OC3CCCC3)c3c(-c4ccc5nc(C)oc5c4)c[nH]c3n2)c(OC)c1 in this test?
stdout: inactive

stdin: So what was the verdict on C=CC(=O)Nc1cc(Nc2nccc(-c3cn(C)c4ccccc34)n2)c(OC)cc1N(C)CCN(C)C + CN1CCN(c2cc(C(=O)Nc3cc4cc(-c5cnn(C)c5)ccc4cn3)ccn2)CC1 in this test?
stdout: active

stdin: So what was the verdict on CC(C)CC(NC(=O)C(Cc1ccccc1)NC(=O)c1cnccn1)B(O)O (centres undefined) + CN1CCN(c2cc(C(=O)Nc3cc4cc(-c5cnn(C)c5)ccc4cn3)ccn2)CC1 in this test?
stdout: active

---

- Tested on: 454973-116-R2-J3-PDC spheroids, percent test/control viability
- EXPERIMENT_DESCRIPTION: Anticancer human tumor 454973-116-R2-J3-PDC cell line growth inhibition [CLK];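 further: spheroids exposed to compounds for 7 days before readout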
- CONDITION_INFO: curve of first compound; second compound 1 µM; spheroids with HUVEC and MSC
OBSERVATION_TYPE: IC50

stdin: // lookup IC50 for CC(CO)NC(=O)c1cc(-c2ccc(Cl)cc2)nn(-c2cnn(C)c2)c1=O (stereo not given) + CN1CCN(c2cc(C(=O)Nc3cc4cc(-c5cnn(C)c5)ccc4cn3)ccn2)CC1
stdout: < 31.6 nM

stdin: // lookup IC50 for COc1ccc([C@@H](O)c2cc(-c3ncnc4cc(N5CCOCC5)ccc34)c(F)cc2Cl)nn1 + CNC(=O)c1ccc(Nc2nc(OC3CCCC3)c3c(-c4ccc5nc(C)oc5c4)c[nH]c3n2)c(OC)c1
stdout: < 31.6 nM

stdin: // lookup IC50 for CC(Nc1ccc2c(c1)OCCn1cc(N3C(=O)OCC3C(F)F)nc1-2)C(N)=O (stereo not given) + CNC(=O)c1ccc(Nc2nc(OC3CCCC3)c3c(-c4ccc5nc(C)oc5c4)c[nH]c3n2)c(OC)c1
stdout: < 31.6 nM

stdin: // lookup IC50 for C=C(F)C(=O)N1CCN(c2nc(OCC3CCCN3C)nc3c2CCN(c2cccc4cccc(Cl)c24)C3)CC1CC#N (stereo not given) + CNC(=O)c1ccc(Nc2nc(OC3CCCC3)c3c(-c4ccc5nc(C)oc5c4)c[nH]c3n2)c(OC)c1
stdout: < 31.6 nM

stdin: // lookup IC50 for COc1cccc2c1C(=O)c1c(O)c3c(c(O)c1C2=O)CC(O)(C(=O)CO)CC3OC1CC(N)C(O)C(C)O1 (stereo not given) + CNC(=O)c1ccc(Nc2nc(OC3CCCC3)c3c(-c4ccc5nc(C)oc5c4)c[nH]c3n2)c(OC)c1
stdout: < 31.6 nM

stdin: // lookup IC50 for CC1(C)CCC(CN2CCN(c3ccc(C(=O)NS(=O)(=O)c4ccc(NCC5CCOCC5)c([N+](=O)[O-])c4)c(Oc4cnc5[nH]ccc5c4)c3)CC2)=C(c2ccc(Cl)cc2)C1 + CNC(=O)c1ccc(Nc2nc(OC3CCCC3)c3c(-c4ccc5nc(C)oc5c4)c[nH]c3n2)c(OC)c1
stdout: < 31.6 nM

stdin: // lookup IC50 for COc1ccc([C@@H](O)c2cc(-c3ncnc4cc(N5CCOCC5)ccc34)c(F)cc2Cl)nn1 + CN1CCN(c2cc(C(=O)Nc3cc4cc(-c5cnn(C)c5)ccc4cn3)ccn2)CC1
stdout: < 31.6 nM

stdin: // lookup IC50 for O=C(c1cc(Cc2n[nH]c(=O)c3ccccc23)ccc1F)N1CCN(C(=O)C2CC2)CC1 + CN1CCN(c2cc(C(=O)Nc3cc4cc(-c5cnn(C)c5)ccc4cn3)ccn2)CC1
stdout: < 31.6 nM

stdin: // lookup IC50 for CCN1CCN(Cc2ccc(Nc3ncc(F)c(-c4cc(F)c5nc(C)n(C(C)C)c5c4)n3)nc2)CC1 + CN1CCN(c2cc(C(=O)Nc3cc4cc(-c5cnn(C)c5)ccc4cn3)ccn2)CC1
stdout: < 3.16 nM

stdin: // lookup IC50 for CCc1c2c(nc3ccc(O)cc13)-c1cc3c(c(=O)n1C2)COC(=O)[C@]3(O)CC + CN1CCN(c2cc(C(=O)Nc3cc4cc(-c5cnn(C)c5)ccc4cn3)ccn2)CC1
stdout: < 3.16 nM

stdin: // lookup IC50 for CCCS(=O)(=O)Nc1ccc(F)c(C(=O)c2c[nH]c3ncc(-c4ccc(Cl)cc4)cc23)c1F + CNC(=O)c1ccc(Nc2nc(OC3CCCC3)c3c(-c4ccc5nc(C)oc5c4)c[nH]c3n2)c(OC)c1
stdout: < 31.6 nM

stdin: // lookup IC50 for CC(C)CC(NC(=O)C(Cc1ccccc1)NC(=O)c1cnccn1)B(O)O (stereo not given) + CNC(=O)c1ccc(Nc2nc(OC3CCCC3)c3c(-c4ccc5nc(C)oc5c4)c[nH]c3n2)c(OC)c1
stdout: < 0.949 nM

stdin: // lookup IC50 for CC1(C)CCC(CN2CCN(c3ccc(C(=O)NS(=O)(=O)c4ccc(NCC5CCOCC5)c([N+](=O)[O-])c4)c(Oc4cnc5[nH]ccc5c4)c3)CC2)=C(c2ccc(Cl)cc2)C1 + CN1CCN(c2cc(C(=O)Nc3cc4cc(-c5cnn(C)c5)ccc4cn3)ccn2)CC1
stdout: < 31.6 nM

stdin: // lookup IC50 for C#Cc1c(F)ccc2cc(O)cc(-c3ncc4c(N5CC6CCC(C5)N6)nc(OCC56CCCN5CC(F)C6)nc4c3F)c12 (stereo not given) + CN1CCN(c2cc(C(=O)Nc3cc4cc(-c5cnn(C)c5)ccc4cn3)ccn2)CC1
stdout: < 31.6 nM

stdin: // lookup IC50 for O=C(c1cc(Cc2n[nH]c(=O)c3ccccc23)ccc1F)N1CCN(C(=O)C2CC2)CC1 + CNC(=O)c1ccc(Nc2nc(OC3CCCC3)c3c(-c4ccc5nc(C)oc5c4)c[nH]c3n2)c(OC)c1
stdout: < 31.6 nM

stdin: // lookup IC50 for Nc1ccn(C2OC(CO)C(O)C2(F)F)c(=O)n1 (stereo not given) + CN1CCN(c2cc(C(=O)Nc3cc4cc(-c5cnn(C)c5)ccc4cn3)ccn2)CC1
stdout: < 31.6 nM

stdin: // lookup IC50 for C#Cc1c(F)ccc2cc(O)cc(-c3ncc4c(N5CC6CCC(C5)N6)nc(OCC56CCCN5CC(F)C6)nc4c3F)c12 (stereo not given) + CNC(=O)c1ccc(Nc2nc(OC3CCCC3)c3c(-c4ccc5nc(C)oc5c4)c[nH]c3n2)c(OC)c1
stdout: < 31.6 nM

stdin: // lookup IC50 for CC1COCCN1c1cc(C2(S(C)(=N)=O)CC2)nc(-c2ccnc3[nH]ccc23)n1 (stereo not given) + CN1CCN(c2cc(C(=O)Nc3cc4cc(-c5cnn(C)c5)ccc4cn3)ccn2)CC1
stdout: < 31.6 nM

stdin: // lookup IC50 for CCc1c2c(nc3ccc(O)cc13)-c1cc3c(c(=O)n1C2)COC(=O)[C@]3(O)CC + CNC(=O)c1ccc(Nc2nc(OC3CCCC3)c3c(-c4ccc5nc(C)oc5c4)c[nH]c3n2)c(OC)c1
stdout: < 3.16 nM

stdin: // lookup IC50 for CC1COCCN1c1cc(C2(S(C)(=N)=O)CC2)nc(-c2ccnc3[nH]ccc23)n1 (stereo not given) + CNC(=O)c1ccc(Nc2nc(OC3CCCC3)c3c(-c4ccc5nc(C)oc5c4)c[nH]c3n2)c(OC)c1
stdout: < 31.6 nM
